This collection of values is drawn from PubChem BioAssay AID540269.

experimental target: glucose-6-phosphate dehydrogenase-6-phosphogluconolactonase (Plasmodium falciparum 3D7)
protocol description: PfG6PD enzyme inhibitors, kinetic NADPH readout, dose response, orthogonal assay, biochemical, kinetic NADPH detection (AID 540269)
test context: purified PfG6PD-6PGL
Activity calls are given as the source filed them. How the calls were made is not given here.
Outcomes you can answer with include only these: y (active), n (inactive)

[
  {
    "structure notation": "CCN(CC)C(=O)c1c(C)[nH]c(=S)c(C#N)c1-c1ccco1",
    "assigned category": "n"
  },
  {
    "structure notation": "Nc1ccc2c3c(cccc13)-c1ccccc1-2",
    "assigned category": "y"
  },
  {
    "structure notation": "CCn1c(=O)n(CC)c2cc(N3CCCC3)c(NC(=O)c3cccc(C)c3)cc21",
    "assigned category": "n"
  },
  {
    "structure notation": "O=C(Cn1sc2ccccc2c1=O)Nc1ccc(Cl)cc1",
    "assigned category": "y"
  },
  {
    "structure notation": "CN(C)C=Nc1ccc2nc3c(cc2c1)[nH]c1ccccc13",
    "assigned category": "n"
  }
]

Q: Query: recorded result category for NS(=O)(=O)c1ccc(-c2ccc(C=C3C(=O)NC(=O)NC3=O)o2)cc1 in this test
A: y

Q: Query: recorded result category for CCOc1ccc(Cl)cc1/C=N/NC(N)=O in this test
A: y

Q: Query: recorded result category for COc1cc(NCCCn2ccc(NC(=O)OCc3ccccc3)nc2=O)cc(OC)c1OC in this test
A: n

Q: Query: recorded result category for C[C@]12CC[C@@H]3c4cc(O)c(O)cc4CC[C@H]3[C@@H]1CC[C@@H]2O in this test
A: y

Q: Query: recorded result category for CCOC(=O)c1c(OCC)[nH]c2c1cc(O)c1ccccc12 in this test
A: n

Q: Query: recorded result category for Cc1ccccc1-n1c(-c2ccc3ccccc3n2)n[nH]c1=S in this test
A: y

---

experimental target: glucose-6-phosphate dehydrogenase-6-phosphogluconolactonase (Plasmodium falciparum 3D7)
protocol description: PfG6PD enzyme inhibitors, kinetic NADPH readout, dose response, orthogonal assay, biochemical, kinetic NADPH detection (AID 540269)
test context: purified PfG6PD-6PGL
Activity calls are given as the source filed them. The rule behind the calls is not given here.
Outcomes you can answer with include only these: active, inactive

Q: Query: recorded result category for Cc1ccc(-c2nc(N3CCOCC3)s[n+]2-c2ccccc2)cc1 in this test
A: inactive

Q: Query: recorded result category for COc1cc(NCc2ccccc2)c2ncn(C(C)C)c2c1 in this test
A: inactive

Q: Query: recorded result category for O=C1C=CC(=O)N1CCCCCCCCCCN1C(=O)C=CC1=O in this test
A: inactive

Q: Query: recorded result category for CCOC(=O)c1ccc(/[N+]([O-])=C/c2ccccc2)cc1 in this test
A: inactive

Q: Query: recorded result category for Cc1cc(C)c[n+](C2=C([O-])c3ccccc3C(=O)/C2=N\S(=O)(=O)c2cccs2)c1 in this test
A: inactive

Q: Query: recorded result category for O=C(Cn1sc2ccccc2c1=O)NC12CC3CC(CC(C3)C1)C2 in this test
A: active

---

experimental target: glucose-6-phosphate dehydrogenase-6-phosphogluconolactonase (Plasmodium falciparum 3D7)
protocol description: PfG6PD enzyme inhibitors, kinetic NADPH readout, dose response, orthogonal assay, biochemical, kinetic NADPH detection (AID 540269)
test context: purified PfG6PD-6PGL
Activity calls are given as the source filed them. The rule behind the calls is not given here.
Outcomes you can answer with include only these: true (1) = active, false (0) = inactive

Reference set (3 entries):
[
  {
    "structure notation": "CS(=O)(=O)c1ccc(N)c(SSc2cc(S(C)(=O)=O)ccc2N)c1",
    "assigned category": "true (1)"
  },
  {
    "structure notation": "COc1ccc(N=C2C(=S)N(c3ccc(OC)cc3)C(=NS(=O)(=O)c3ccccc3)N2c2ccccc2)cc1",
    "assigned category": "false (0)"
  },
  {
    "structure notation": "Cc1cc(O)c(C(C)C)cc1N=Cc1ccc(N(C)C)cc1",
    "assigned category": "false (0)"
  }
]

Q: Query: recorded result category for COC(=O)C1=C(C(=O)OC)SC2(S1)C(C(=O)OC)=C(C(=O)OC)Sc1c2ssc1=O in this test
A: false (0)

Q: Query: recorded result category for NC(=O)N/N=C/c1ccc(-n2nncc2-c2ccc(Cl)cc2)cc1 in this test
A: false (0)
